The measured values listed here are drawn from patent US9682141B2.

Molecular target: PI3K γ (Homo sapiens (Human), UniProt P48736)
Sequence (P48736 whole entry): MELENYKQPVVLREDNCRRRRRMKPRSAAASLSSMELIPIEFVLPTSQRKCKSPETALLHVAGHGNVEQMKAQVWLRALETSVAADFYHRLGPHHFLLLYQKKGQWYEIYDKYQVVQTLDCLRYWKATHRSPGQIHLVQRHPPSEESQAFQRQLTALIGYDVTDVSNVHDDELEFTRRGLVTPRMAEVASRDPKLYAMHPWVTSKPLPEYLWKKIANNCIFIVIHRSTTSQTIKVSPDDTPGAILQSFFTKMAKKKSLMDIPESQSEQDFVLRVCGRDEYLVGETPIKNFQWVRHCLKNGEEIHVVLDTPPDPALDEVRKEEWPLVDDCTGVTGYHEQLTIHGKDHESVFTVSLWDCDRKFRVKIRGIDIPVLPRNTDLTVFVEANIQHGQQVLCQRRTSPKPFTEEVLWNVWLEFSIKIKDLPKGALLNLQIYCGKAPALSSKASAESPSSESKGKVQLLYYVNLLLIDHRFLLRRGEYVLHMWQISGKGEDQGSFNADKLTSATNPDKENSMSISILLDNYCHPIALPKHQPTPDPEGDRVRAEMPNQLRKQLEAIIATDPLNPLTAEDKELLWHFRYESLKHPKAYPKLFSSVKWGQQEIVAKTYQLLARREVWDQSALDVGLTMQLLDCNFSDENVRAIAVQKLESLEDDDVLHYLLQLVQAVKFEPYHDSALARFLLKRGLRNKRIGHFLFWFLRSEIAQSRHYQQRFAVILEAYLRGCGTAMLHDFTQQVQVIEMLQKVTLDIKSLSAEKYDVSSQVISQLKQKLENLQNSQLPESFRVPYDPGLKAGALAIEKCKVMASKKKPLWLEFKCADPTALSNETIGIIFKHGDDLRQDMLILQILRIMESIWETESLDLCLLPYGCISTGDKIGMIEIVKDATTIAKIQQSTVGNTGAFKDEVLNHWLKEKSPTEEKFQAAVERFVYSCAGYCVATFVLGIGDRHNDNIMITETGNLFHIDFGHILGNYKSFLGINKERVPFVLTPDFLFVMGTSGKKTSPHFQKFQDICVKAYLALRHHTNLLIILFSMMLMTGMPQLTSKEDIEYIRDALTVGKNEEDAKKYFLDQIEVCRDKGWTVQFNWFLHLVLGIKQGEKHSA
Assay: PI 3-Kinase (human) HTRF assay, p110γ
Assay type: biochemical
Conditions: read-out: PI3K γ IC50
pIC50: −log10 of the molar value.
Assay metric: pIC50

Some compounds with recorded pIC50:
> print(dat)
                                   compound  assay.metric  endpoint.value
1  C[C@H]1CN(C2CN(c3cnc4ccc(-c5ccc6oc(N)nc6c5)nc4n3)C2)CCN1C         pIC50          < 5.00
2  C[C@H]1COCCN1c1cnc2ccc(-c3ccc4oc(N)nc4c3)nc2n1         pIC50          > 7.00
3  Nc1nc2cc(-c3ccc4ncc(N5CC(N6CCN(C7CC7)CC6)C5)cc4n3)ccc2o1         pIC50          > 6.00
4  Cn1c(=O)n(-c2ccc(C(C)(C)C#N)cc2)c2c3cc(-c4ccc5oc(N)nc5c4)ccc3ncc21 [Compound 7]         pIC50          > 7.00
5  Nc1nc2cc(-c3ccc4ncc(N5CC(N6C7CCC6COC7)C5)cc4n3)ccc2o1         pIC50          > 6.00
6  Nc1nc2cc(-c3ccc4nccc(NC5CCOCC5)c4c3)ccc2o1 [Compound 32]         pIC50          > 5.00

Please supply pIC50 for each of the following items, keeping them in order.
1. Nc1nc2cc(-c3ccc4ncc(C(=O)N5CCOCC5)cc4c3)ccc2o1
2. Nc1nc2cc(-c3ccn4ncc(-c5ccncc5)c4n3)ccc2o1

Result block:
1: < 5.00; 2: > 7.00

Please supply pIC50 for each of the following items, keeping them in order.
1. Nc1nc2cc(-c3cc4nccc(-c5ccncc5)c4s3)ccc2o1 [Compound 14]
2. CCOC(=O)N1CC=C(c2cnc3ccc(-c4ccc5oc(N)nc5c4)nc3n2)CC1
3. Nc1nc2cc(-c3ccc4ncc(C(=O)N5CCC(N6CCOCC6)CC5)n4c3)ccc2o1
4. Nc1nc2ccc(-c3ccc4ncc(N5CCOCC5)nc4c3)cc2s1

Result block:
["> 5.00", "> 7.00", "> 5.00", "> 6.00"]

Please supply pIC50 for each of the following items, keeping them in order.
1. CCn1cnc2ccc(-c3ccc4oc(N)nc4c3)cc2c1=O
2. CN1CCCN(C(=O)c2cnc3ccc(-c4ccc5oc(N)nc5c4)cn23)CC1
3. Nc1nc2cc(-c3ccc4ncn(CCO)c(=O)c4c3)ccc2o1
4. Nc1nc2cc(-c3ccc4ncc(N5CCN(C(=O)C6(N)CC6)CC5)nc4n3)ccc2o1
5. Nc1nc2cc(-c3ccc4ncc(N5CCOCC5)n4c3)ccc2o1 [Compound 53]

Result block:
["> 7.00", "< 5.00", "> 6.00", "> 7.00", "< 5.00"]

Please supply pIC50 for each of the following items, keeping them in order.
1. CC(=O)N1CCN(C(=O)c2cnc3ccc(-c4ccc5oc(N)nc5c4)cn23)CC1
2. Nc1nc2cc(-c3ccc4ncc(C(=O)N[C@H]5CC[C@H](O)CC5)n4c3)ccc2o1
3. CN1CCN(C(=O)C2CN(c3cnc4ccc(-c5ccc6oc(N)nc6c5)cc4n3)C2)CC1 [drawing 360]

Result block:
1. > 6.00
2. > 7.00
3. > 5.00
